These data points were gathered from BindingDB's records for patent WO2025049746.

TEST_SYSTEM: Bifunctional 3'-5' exonuclease/ATP-dependent helicase WRN [480-1251] (UniProt Q14191)
Construct: 480-1251
Sequence (Q14191 480-1251): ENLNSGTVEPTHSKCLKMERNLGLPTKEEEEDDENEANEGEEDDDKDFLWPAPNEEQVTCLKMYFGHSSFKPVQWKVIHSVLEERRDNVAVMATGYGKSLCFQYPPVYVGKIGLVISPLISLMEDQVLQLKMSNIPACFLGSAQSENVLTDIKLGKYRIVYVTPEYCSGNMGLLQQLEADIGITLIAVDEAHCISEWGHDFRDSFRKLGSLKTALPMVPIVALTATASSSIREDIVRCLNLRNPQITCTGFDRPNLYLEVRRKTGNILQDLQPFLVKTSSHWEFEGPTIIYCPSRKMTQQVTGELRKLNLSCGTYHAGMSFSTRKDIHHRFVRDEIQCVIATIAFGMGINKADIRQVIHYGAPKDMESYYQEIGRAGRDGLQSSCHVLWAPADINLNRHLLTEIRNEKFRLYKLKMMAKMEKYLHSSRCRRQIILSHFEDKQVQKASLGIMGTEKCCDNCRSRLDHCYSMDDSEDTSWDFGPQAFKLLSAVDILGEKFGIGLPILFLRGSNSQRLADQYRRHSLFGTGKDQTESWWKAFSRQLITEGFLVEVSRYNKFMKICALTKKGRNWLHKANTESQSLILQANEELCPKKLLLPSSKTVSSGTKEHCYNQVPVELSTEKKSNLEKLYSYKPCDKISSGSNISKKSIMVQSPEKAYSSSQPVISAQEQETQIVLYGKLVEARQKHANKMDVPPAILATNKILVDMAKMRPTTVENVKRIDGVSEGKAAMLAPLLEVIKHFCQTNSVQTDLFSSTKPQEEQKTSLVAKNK
TEST_NAME: Biochemical Activity Assays
Description: The pure fractions were pooled and desalted/buffer exchanged into storage buffer using a HiTrap desalting column. […] First, WRN alone was pre-incubated with DMSO or compound of interest for 15 minutes. To initiate the reaction, ATP, dsDNA substrate, and ssDNA competitor (ssDNA_comp: […]) were added and incubated at room temperature for 20 minutes at which point DNA unwinding activity was monitored by measuring Cy3 fluorescence. […]
PROPERTY_NAME: IC50
The reply should read as a number followed by its unit.

Req: Reported IC50, compound CCc1c(N2CCN(C(=O)c3ncnc(C)c3O)CC2)c(=O)n2nc(-c3ccc4c(c3)CO[C@H]4C(F)(F)F)nc2n1CC(=O)Nc1ccc(C(F)(F)F)cc1Cl : ____
Resp: 554 nM

Req: What about this compound? CCc1c(N2CCN(C(=O)c3ncnc(C)c3O)CC2)c(=O)n2nc(-c3cccc4c3OCCO4)nc2n1CC(=O)Nc1ccc(SC(F)(F)F)cc1
Resp: 232 nM

Req: What about this compound? CCc1c(N2CCN(C(=O)c3ncnc(C)c3O)CC2)c(=O)n2nc(-c3ccc4ncccc4c3)nc2n1CC(=O)Nc1ccc(C(F)(F)F)cc1Cl
Resp: 24 nM

Req: What about this compound? CCc1c(N2CCN(C(=O)c3nc4n(c(=O)c3O)CCOC4)CC2)c(=O)n2nc(N3C[C@H]4COC[C@H]4C3)nc2n1CC(=O)Nc1ccc(C(F)(F)F)cc1Cl
Resp: 320 nM

Req: What about this compound? CCc1c(N2CCN(S(=O)(=O)C3CC3)CC2)c(=O)n2nc(C3=CCOCC3)nc2n1CC(=O)Nc1ccc(C(F)(F)F)cc1Cl
Resp: 44.5 nM

Req: What about this compound? CCc1c(N2CCN(C(=O)c3ncnc(C)c3O)CC2)c(=O)n2nc(-c3cnc4c(ccn4C)c3)nc2n1CC(=O)Nc1ccc(C(F)(F)F)cc1Cl
Resp: 21 nM

Req: What about this compound? CCc1c(N2CCN(C(=O)c3ncnc(C)c3O)CC2)c(=O)n2nc(-c3cc4c(cc3F)O[C@H](C)C4)nc2n1CC(=O)Nc1ccc(C(F)(F)F)cc1Cl
Resp: 20 nM

Req: What about this compound? CCc1c(N2CCN(C(=O)c3ncnc(C)c3O)CC2)c(=O)n2nc(-c3ccn4nccc4c3)nc2n1CC(=O)Nc1ccc(C(F)(F)F)cc1Cl
Resp: 76 nM

Req: What about this compound? CCc1c(N2CCN(C(=O)c3ncnc(C)c3O)CC2)c(=O)n2nc(-c3cccc4c3CCOC4)nc2n1CC(=O)Nc1c(Cl)cc(C(F)(F)F)c2c1CC2
Resp: 137 nM

Req: What about this compound? CCc1c(N2CCN(C(=O)c3ncnc(C)c3O)CC2)c(=O)n2nc(-c3cc4c(cc3C)C(C)(C)OC4)nc2n1CC(=O)Nc1ccc(C(F)(F)F)cc1Cl
Resp: 58 nM

Req: What about this compound? CCc1c(N2CCN(C(=O)c3ncnc(C)c3O)C[C@@H]2C)c(=O)n2nc(-c3ccc4c(c3)COC4(C)C)nc2n1CC(=O)Nc1ccc(C(F)(F)F)cc1Cl
Resp: 50 nM
